# Tested on: NCI-H1755
# assay.summary: relative viability (nuclei count vs DMSO), 5 days (fraction); higher = more cells survive
# condition: first compound 0.4 µM
reported.endpoint: relative viability

What value of relative viability has been recorded for this entry: COc1cc(N2CCC(C(N)=O)CC2)ccc1Nc1nc(N)c(Cl)c(Nc2ccccc2S(=O)(=O)C(C)C)n1 [HG-5-88-01] + O=C(CCCCCCC(=O)Nc1ccccc1)NO [Vorinostat] (partner 1 µM)
0.715

Likewise for Clc1ccc(Nc2nnc(Cc3ccncc3)c3ccccc23)cc1 [Vatalanib] + C[C@]1(O)C[C@@H](c2nc(-c3ccc4ccc(-c5ccccc5)nc4c3)c3c(N)nccn32)C1 [Linsitinib] (partner 1 µM) ?
0.995

Another: COc1cc(N2CCC(C(N)=O)CC2)ccc1Nc1nc(N)c(Cl)c(Nc2ccccc2S(=O)(=O)C(C)C)n1 [HG-5-88-01] + Nc1ncn([C@H]2C[C@H](O)[C@@H](CO)O2)c(=O)n1 [Decitabine] (partner 2 µM)
0.829

Would you kindly repeat that for COc1cc(N2CCC(C(N)=O)CC2)ccc1Nc1nc(N)c(Cl)c(Nc2ccccc2S(=O)(=O)C(C)C)n1 [HG-5-88-01] + CC(C)C[C@H](NC(=O)[C@H](Cc1ccccc1)NC(=O)c1cnccn1)B(O)O [Bortezomib] (partner 0.002 µM) ?
0.885

* * *

# System: BEN
# assay.summary: relative viability (nuclei count vs DMSO), 5 days (fraction); higher = more cells survive
# condition: first compound 0.03162 µM
# label = True if relative viability < 0.5 else False

Is it true that relative viability reported for CC(C)Oc1cc(Nc2nc(N[C@@H](C)c3ccc(F)cn3)ncc2Cl)n[nH]1 [AZ23] + CS(=O)(=O)N1CCN(Cc2cc3nc(-c4cccc5[nH]ncc45)nc(N4CCOCC4)c3s2)CC1 [Pictilisib] (partner 1 µM) is less than 0.5?
False

Same question for CC(C)Oc1cc(Nc2nc(N[C@@H](C)c3ccc(F)cn3)ncc2Cl)n[nH]1 [AZ23] + CC(=O)c1c(C)c2cnc(Nc3ccc(N4CCNCC4)cn3)nc2n(C2CCCC2)c1=O [Palbociclib] (partner 0.5 µM) please.
True

What do we get for CC(C)Oc1cc(Nc2nc(N[C@@H](C)c3ccc(F)cn3)ncc2Cl)n[nH]1 [AZ23] + CC(=O)Nc1cccc(-n2c(=O)n(C3CC3)c(=O)c3c(Nc4ccc(I)cc4F)n(C)c(=O)c(C)c32)c1 [Trametinib] (partner 0.02 µM) ?
False

Continue with CC(C)Oc1cc(Nc2nc(N[C@@H](C)c3ccc(F)cn3)ncc2Cl)n[nH]1 [AZ23] + Nc1ncn([C@H]2C[C@H](O)[C@@H](CO)O2)c(=O)n1 [Decitabine] (partner 2 µM)
False

Follow-up item: CC(C)Oc1cc(Nc2nc(N[C@@H](C)c3ccc(F)cn3)ncc2Cl)n[nH]1 [AZ23] + Cc1nc(Nc2ncc(C(=O)Nc3c(C)cccc3Cl)s2)cc(N2CCN(CCO)CC2)n1 [Dasatinib] (partner 0.075 µM)
True

Please answer likewise for CC(C)Oc1cc(Nc2nc(N[C@@H](C)c3ccc(F)cn3)ncc2Cl)n[nH]1 [AZ23] + CCNC(=O)c1noc(-c2cc(C(C)C)c(O)cc2O)c1-c1ccc(CN2CCOCC2)cc1 [Luminespib] (partner 0.01 µM)
True

* * *

# System: LCLC-103H
# assay.summary: relative viability (nuclei count vs DMSO), 5 days (fraction); higher = more cells survive
# condition: first compound 0.04 µM
For each entry below, report its relative viability value.
Number only, please.

# input compound: COc1cc(N2CCC(C(N)=O)CC2)ccc1Nc1nc(N)c(Cl)c(Nc2ccccc2S(=O)(=O)C(C)C)n1 [HG-5-88-01] + C[C@]1(O)C[C@@H](c2nc(-c3ccc4ccc(-c5ccccc5)nc4c3)c3c(N)nccn32)C1 [Linsitinib] (partner 1 µM) ; wanted: its relative viability
0.986

// repeat for Clc1ccc(Nc2nnc(Cc3ccncc3)c3ccccc23)cc1 [Vatalanib] + O=C(c1cc(Cc2n[nH]c(=O)c3ccccc23)ccc1F)N1CCN(C(=O)C2CC2)CC1 [Olaparib] (partner 8 µM) and report
0.746

Also C[C@@H]1CN(CC(=O)Nc2ccc3c(c2)Cc2cccc(-c4cc(=O)cc(N5CCOCC5)o4)c2S3)C[C@H](C)O1 + CCNC(=O)c1noc(-c2cc(C(C)C)c(O)cc2O)c1-c1ccc(CN2CCOCC2)cc1 [Luminespib] (partner 0.01 µM) , if possible.
0.949

Now try Clc1ccc(Nc2nnc(Cc3ccncc3)c3ccccc23)cc1 [Vatalanib] + COc1cccc2cc(-c3nc([C@H]4CC[C@H](C(=O)O)CC4)n4ncnc(N)c34)[nH]c12 [OSI-027] (partner 0.5 µM) .
0.496

# repeat for Clc1ccc(Nc2nnc(Cc3ccncc3)c3ccccc23)cc1 [Vatalanib] + C[C@]1(O)C[C@@H](c2nc(-c3ccc4ccc(-c5ccccc5)nc4c3)c3c(N)nccn32)C1 [Linsitinib] (partner 1 µM)
1.24

Same thing, different compound: Clc1ccc(Nc2nnc(Cc3ccncc3)c3ccccc23)cc1 [Vatalanib] + Nc1nc2[nH]cc(CCc3ccc(C(=O)N[C@@H](CCC(=O)O)C(=O)O)cc3)c2c(=O)[nH]1 [Pemetrexed] (partner 0.2 µM)
0.343

Also, C[C@@H]1CN(CC(=O)Nc2ccc3c(c2)Cc2cccc(-c4cc(=O)cc(N5CCOCC5)o4)c2S3)C[C@H](C)O1 + Cc1nc(NC(=O)N2CCC[C@H]2C(N)=O)sc1-c1ccnc(C(C)(C)C(F)(F)F)c1 [Alpelisib] (partner 2 µM) please.
1.02
